Origin of the recorded values: PubChem BioAssay AID588473

- Tested on: CRF-binding protein / CRF receptor 2 complex (human)
- method_notes: agonists of CRF-BP/CRF-R2 complex, primary screen, cell-based, HEK293, calcium dye fluorescence, uHTS (AID 588473)
- applied_conditions: calcium dye fluorescence (FLIPR), at 13.2 µM, percent of saturating CRF peptide response
Among all 350,000 compounds or so, about 1,600 (0.46%) were called active.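 Rule for the calls: active = activation of at least 50%, plus an integration ratio under a set limit after plate pattern correction; inactive = the rest.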 Many of the other results were omitted from the sample, so actives are more common in it than they were.
API: response.call in active, inactive

Input: Please let me know the test result on file for CCN(CC)C(=O)C1=C(C)N(Cc2ccc(F)cc2)C(=O)C(CC(=O)NCc2cccc3ccccc23)C1 (configuration not stated) .
Output: inactive

Input: Please let me know the test result on file for CC(NC(=O)Nc1ccccc1)c1ccccc1 (configuration not stated) .
Output: inactive

Input: Please let me know the test result on file for CC1(C)SC2c3ccccc3C(=O)N2[C@@H]1C(=O)NCc1ccco1 (some centres not stated) .
Output: inactive

Input: Please let me know the test result on file for CC(C)n1c(CN2CCN(Cc3ccccc3)CC2)nc2ccccc21 .
Output: inactive

Input: Please let me know the test result on file for Cc1noc(C)c1S(=O)(=O)N(C)Cc1ccccc1 .
Output: inactive

Input: Please let me know the test result on file for CC(C)CNC(=O)/C=C/C(=O)O .
Output: inactive

Input: Please let me know the test result on file for Cc1cc2nc3c(=O)n(Cc4ccccc4)c(=O)[nH]c3nc2cc1N .
Output: active

Input: Please let me know the test result on file for CN(C(=O)COC(=O)c1ccc(Br)o1)c1c(N)n(Cc2ccccc2)c(=O)[nH]c1=O .
Output: inactive

Input: Please let me know the test result on file for CCOC(=O)c1ccc(N/C(=N/S(=O)(=O)c2ccccc2)c2ccccc2)cc1 .
Output: inactive

Input: Please let me know the test result on file for CCOc1ccc2nc(/N=C/c3nc(-c4ccccc4)oc3O)sc2c1 .
Output: active

Input: Please let me know the test result on file for Cc1cccc(NC(=O)C(C)N2C(=O)C3C4CC(C(Br)C4Br)C3C2=O)c1 (configuration not stated) .
Output: active

Input: Please let me know the test result on file for Cc1ccc(N2C(=O)CC(Nc3cccc4ccccc34)C2=O)cc1 (configuration not stated) .
Output: inactive

Input: Please let me know the test result on file for O=C(N/N=C/c1sc(N2CCCCC2)nc1-c1cccs1)c1cccnc1 .
Output: active

Input: Please let me know the test result on file for CCOc1cc(/C=N/NC(=O)c2c(C)nc3ccc(Cl)cn23)ccc1O .
Output: inactive

Input: Please let me know the test result on file for CC(C)[C@H](NC(=O)N1c2ccccc2NC(=O)[C@@H]1C(C)C)C(=O)N[C@H](C(=O)O)c1ccccc1 .
Output: inactive

Input: Please let me know the test result on file for CCC(C(=O)Nc1ccc(C(C)C)cc1)c1ccccc1 (configuration not stated) .
Output: active

Input: Please let me know the test result on file for O=C(O)c1ccc(S(=O)(=O)c2ccccc2)s1 .
Output: inactive

Input: Please let me know the test result on file for CCCN(CCC)c1ccc(C(O)c2nnc(-c3ccccc3)o2)cc1 (configuration not stated) .
Output: inactive

Input: Please let me know the test result on file for CC1CCCCC1NCC(=O)Nc1ccccc1C(=O)Nc1ccccc1 (configuration not stated) .
Output: inactive

Input: Please let me know the test result on file for COCCCNCC(=O)Nc1sc(C)c(C)c1C(=O)OC .
Output: inactive

Input: Please let me know the test result on file for CC(C)c1ccc(NC(=O)Cn2ncc3ccccc32)cc1 .
Output: inactive

Input: Please let me know the test result on file for Clc1ccc2c(c1)C1=C(C(c3ccncc3)O2)C(c2ccc(Br)cc2)n2ncnc2N1 (configuration not stated) .
Output: inactive

Input: Please let me know the test result on file for COc1ccc(-c2c(-c3cc(OC)cc(OC)c3)n(C)c3ccc(-c4ccn[nH]4)cc23)cc1 .
Output: inactive

Input: Please let me know the test result on file for CN(CC(=O)Nc1ccc(C(N)=O)cc1)S(=O)(=O)c1ccc2c(c1)OCCO2 .
Output: inactive

Input: Please let me know the test result on file for O=C(c1cccs1)N1CCCC(c2nc(-c3ccc(F)cc3)no2)C1 (configuration not stated) .
Output: inactive

Input: Please let me know the test result on file for Cc1cnc(C(=O)Oc2cccc(Cl)c2Cl)cn1 .
Output: inactive

Input: Please let me know the test result on file for CC(=O)OCC1(O)CC23CCC4c5ccoc5CCC4(C)C2CCC1C3 (configuration not stated) .
Output: inactive

Input: Please let me know the test result on file for CC(=O)Nc1ccccc1Sc1ccc2c3c(cccc13)C(=O)N(c1ccc(C)cc1)C2=O .
Output: active

Input: Please let me know the test result on file for COc1cc(NC(=O)c2ccccc2NS(=O)(=O)c2ccc(Cl)s2)cc(OC)c1 .
Output: active

Input: Please let me know the test result on file for Cc1cccc(NC(=O)CN2C(=O)CNC2=O)c1 .
Output: inactive

Input: Please let me know the test result on file for CCOc1ccc2nc(C(=O)N3CCCC(C)C3)sc2c1 (configuration not stated) .
Output: inactive

Input: Please let me know the test result on file for N#Cc1c(-c2ccc(F)cc2)cc(C2CC2)nc1SCC(=O)c1cccs1 .
Output: active

Input: Please let me know the test result on file for Nc1cc(=O)n(Cc2ccccc2)c(=O)n1Cc1ccccc1 .
Output: inactive

Input: Please let me know the test result on file for COc1cccc(N2CC(NC(=O)c3ccc4ccccc4c3)CC2=O)c1 (configuration not stated) .
Output: inactive

Input: Please let me know the test result on file for Cc1nn(-c2ccc(F)cc2)c(Cl)c1/C=C(/CCC(=O)O)c1nc2ccccc2s1 .
Output: inactive

Input: Please let me know the test result on file for Cc1cccn2c(=O)c(/C=C(\C#N)S(=O)(=O)c3ccc(Cl)cc3)c(N3CCC(C(N)=O)CC3)nc12 .
Output: inactive

Input: Please let me know the test result on file for CC(N=Cc1nc(-c2ccccc2)oc1O)c1ccccc1 (configuration not stated) .
Output: inactive
